The origin of these recorded values is ChEMBL document CHEMBL1201861.

System: MHH-PREB-1;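 also: cell viability assay measuring inhibition of proliferation of human MHH-PREB-1 cells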
Procedure text: cells
Assay type: functional, cell-based
Recorded conditions: Homo sapiens
Description: SANGER: Inhibition of human MHH-PREB-1 cell growth in a cell viability assay.
Exam item: assign 1 (yes) to entries whose IC50 is below 10 nM and 0 (no) to entries at or above 10 nM. Note that a value of exactly 10 nM receives 0 (no).

# Molecule, Group
measured = [
    ("O=c1[nH]c2ccccc2n1C1CCN(Cc2ccc(-c3nc4cc5[nH]cnc5cc4nc3-c3ccccc3)cc2)CC1", "0 (no)"),
    ("C/C=C(/C)C(=O)O[C@H]1C(C)=C2[C@H]([C@@H]1OC(=O)CCCCCCC)[C@@](C)(OC(C)=O)C[C@H](OC(=O)CCC)[C@@]1(O)[C@H]2OC(=O)[C@@]1(C)O [THAPSIGARGIN]", "0 (no)"),
    ("Cn1c(=O)n(-c2ccc(C(C)(C)C#N)cc2)c2c3cc(-c4cnc5ccccc5c4)ccc3ncc21 [DACTOLISIB]", "1 (yes)"),
    ("Fc1cc(-c2cc[nH]/c(=N/c3ccc(-n4cnc(N5CCOCC5)n4)cc3)n2)cc(N2CCOCC2)c1", "0 (no)"),
    ("CC[C@]1(O)C[C@@H]2CN(CCc3c([nH]c4ccccc34)[C@@](C(=O)OC)(c3cc4c(cc3OC)N(C)[C@H]3[C@@](O)(C(=O)OC)[C@H](OC(C)=O)[C@]5(CC)C=CCN6CC[C@]43[C@@H]65)C2)C1 [VINBLASTINE]", "1 (yes)"),
    ("CC(=O)c1c(C)c2cnc(Nc3ccc(N4CCNCC4)cn3)nc2n(C2CCCC2)c1=O [PALBOCICLIB]", "0 (no)"),
    ("O=c1cc(N2CCOCC2)oc2c(-c3cccc4c3sc3ccccc34)cccc12", "0 (no)"),
    ("Cc1nc(Nc2ncc(C(=O)Nc3c(C)cccc3Cl)s2)cc(N2CCN(CCO)CC2)n1 [DASATINIB]", "0 (no)"),
    ("C[C@]1(c2nc3c(C(N)=O)cccc3[nH]2)CCCN1 [VELIPARIB]", "0 (no)"),
    ("CCn1c(-c2nonc2N)nc2cnc(Oc3cccc(NC(=O)c4ccc(OCCN5CCOCC5)cc4)c3)cc21 [GSK-269962A]", "0 (no)"),
    ("CCNC(=O)c1noc(-c2cc(C(C)C)c(O)cc2O)c1-c1ccc(CN2CCOCC2)cc1 [LUMINESPIB]", "0 (no)"),
]

---

Tested on: NCI-H1993;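 also: growth inhibition of the cancer cell line, assessed with a cell viability assay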
Procedure text: cells
Assay type: functional, cell-based
Recorded conditions: Homo sapiens
Description: SANGER: Inhibition of human NCI-H1993 cell growth in a cell viability assay.
// IC50 lookup, one value per entry
Experimental readout: IC50

# Smiles string, Tested system, Value
rows = [
    ("CC[C@@]1(O)C(=O)OCc2c1cc1n(c2=O)Cc2cc3ccccc3nc2-1", "NCI-H1993", "> 100 nM"),
    ("C/C(O)=C(\\C#N)C(=O)Nc1cc(Br)ccc1Br", "NCI-H1993", "> 16000 nM"),
    ("CC[C@]1(O)C[C@@H]2CN(CCc3c([nH]c4ccccc34)[C@@](C(=O)OC)(c3cc4c(cc3OC)N(C)[C@H]3[C@@](O)(C(=O)OC)[C@H](OC(C)=O)[C@]5(CC)C=CCN6CC[C@]43[C@@H]65)C2)C1", "NCI-H1993", "> 100 nM"),
    ("Cn1cc(/C=C2\\C(=O)Nc3cccnc32)c2ccccc21", "NCI-H1993", "> 2000 nM"),
    ("C[C@]12O[C@H](C[C@]1(O)CO)n1c3ccccc3c3c4c(c5c6ccccc6n2c5c31)CNC4=O", "NCI-H1993", "> 2000 nM"),
    ("C/C=C(/C)C(=O)O[C@H]1C(C)=C2[C@H]([C@@H]1OC(=O)CCCCCCC)[C@@](C)(OC(C)=O)C[C@H](OC(=O)CCC)[C@@]1(O)[C@H]2OC(=O)[C@@]1(C)O", "NCI-H1993", "> 512 nM"),
]

---

System: Raji;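 also: cell viability assay measuring inhibition of Raji cell growth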
Procedure text: cells
Assay type: functional, cell-based
Recorded conditions: Homo sapiens
Description: SANGER: Inhibition of human Raji cell growth in a cell viability assay.

# Compound, Tested system, IC50
records = [
    ("CCn1c(-c2nonc2N)nc2cnc(Oc3cccc(NC(=O)c4ccc(OCCN5CCOCC5)cc4)c3)cc21 [GSK-269962A]", "Raji", "> 2500 nM"),
    ("Cc1ccc(NC(=O)c2cccc(C(C)(C)C#N)c2)cc1Nc1ccc2ncn(C)c(=O)c2c1", "Raji", "> 4000 nM"),
    ("CC(O)(CS(=O)(=O)c1ccc(F)cc1)C(=O)Nc1ccc(C#N)c(C(F)(F)F)c1 (stereo not drawn) [BICALUTAMIDE]", "Raji", "> 1020 nM"),
    ("COc1cc(C)c(Sc2cnc(NC(=O)c3ccc(CNC(C)C(C)(C)C)cc3)s2)cc1C(=O)N1CCN(C(C)=O)CC1 (stereo not drawn)", "Raji", "> 10200 nM"),
    ("Cc1[nH]c(/C=C2\\C(=O)Nc3ccc(S(=O)(=O)Cc4c(Cl)cccc4Cl)cc32)c(C)c1C(=O)N1CCC[C@@H]1CN1CCCC1", "Raji", "> 2000 nM"),
    ("C/C=C(/C)C(=O)O[C@H]1C(C)=C2[C@H]([C@@H]1OC(=O)CCCCCCC)[C@@](C)(OC(C)=O)C[C@H](OC(=O)CCC)[C@@]1(O)[C@H]2OC(=O)[C@@]1(C)O", "Raji", "38.4 nM"),
    ("C/C(O)=C(\\C#N)C(=O)Nc1cc(Br)ccc1Br", "Raji", "> 16000 nM"),
    ("O=c1[nH]c2ccccc2n1C1CCN(Cc2ccc(-c3nc4cc5[nH]cnc5cc4nc3-c3ccccc3)cc2)CC1", "Raji", "> 2560 nM"),
]

---

Tested on: HOP-92;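 also: cell viability readout, with IC50 reflecting inhibition of HOP-92 cell growth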
Procedure text: cells
Assay type: functional, cell-based
Recorded conditions: Homo sapiens
Description: SANGER: Inhibition of human HOP-92 cell growth in a cell viability assay.
pIC50: −log10 of the molar value.
// pIC50 lookup, one value per entry

# Compound, pIC50
measured = [
    ("N#C/C(=C1/Nc2ccccc2S1)c1ccnc(NCCc2cccnc2)n1", "< 5.10"),
    ("Cn1cc(/C=C2\\C(=O)Nc3cccnc32)c2ccccc21", "< 5.70"),
    ("CC[C@@]1(O)C(=O)OCc2c1cc1n(c2=O)Cc2cc3ccccc3nc2-1 [CAMPTOTHECIN]", 8.06),
    ("O=c1[nH]c2ccccc2n1C1CCN(Cc2ccc(-c3nc4cc5[nH]cnc5cc4nc3-c3ccccc3)cc2)CC1", "< 5.59"),
    ("C[C@]1(c2nc3c(C(N)=O)cccc3[nH]2)CCCN1 [VELIPARIB]", "< 5.30"),
]

---

Tested on: EW-3;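 also: cell viability assay read-out, IC50 reflects inhibition of growth of the EW-3 cells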
Procedure text: cells
Type: functional, cell-based
Recorded conditions: Homo sapiens
Description: SANGER: Inhibition of human EW-3 cell growth in a cell viability assay.
// IC50 lookup, one value per entry

# Compound, IC50
measured = [
    ("CCNc1cc(N[C@H]2CC[C@@H](O)CC2)nc(Nc2ccc3c(ccn3Cc3ccccc3)c2)n1", "> 5.12 µM"),
    ("N#C/C(=C1/Nc2ccccc2S1)c1ccnc(NCCc2cccnc2)n1", "> 8 µM"),
    ("Cc1ccc(NC(=O)c2cccc(C(C)(C)C#N)c2)cc1Nc1ccc2ncn(C)c(=O)c2c1", "> 4 µM"),
    ("CC[C@]1(O)C[C@@H]2CN(CCc3c([nH]c4ccccc34)[C@@](C(=O)OC)(c3cc4c(cc3OC)N(C)[C@H]3[C@@](O)(C(=O)OC)[C@H](OC(C)=O)[C@]5(CC)C=CCN6CC[C@]43[C@@H]65)C2)C1 [VINBLASTINE]", "0.0372 µM"),
    ("Cc1[nH]c(/C=C2\\C(=O)Nc3ccc(S(=O)(=O)Cc4c(Cl)cccc4Cl)cc32)c(C)c1C(=O)N1CCC[C@@H]1CN1CCCC1 [PHA-665752]", "> 2 µM"),
    ("Cn1cc(/C=C2\\C(=O)Nc3cccnc32)c2ccccc21", "> 2 µM"),
    ("Fc1cc(-c2cc[nH]/c(=N/c3ccc(-n4cnc(N5CCOCC5)n4)cc3)n2)cc(N2CCOCC2)c1", "4.23 µM"),
    ("C[C@]1(c2nc3c(C(N)=O)cccc3[nH]2)CCCN1 [VELIPARIB]", "> 5 µM"),
    ("CO[C@@]12[C@H](COC(N)=O)C3=C(C(=O)C(C)=C(N)C3=O)N1C[C@@H]1N[C@@H]12 [MITOMYCIN]", "0.0619 µM"),
]

---

Tested on: SW1088;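 also: growth inhibition of human SW1088 cells, read out by a cell viability assay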
Procedure text: cells
Assay type: functional, cell-based
Recorded conditions: Homo sapiens
Description: SANGER: Inhibition of human SW1088 cell growth in a cell viability assay.
pIC50: −log10 of the molar value.
Experimental readout: pIC50

# Compound, Rel, Value
rows = [
    ("O=c1[nH]c2ccccc2n1C1CCN(Cc2ccc(-c3nc4cc5[nH]cnc5cc4nc3-c3ccccc3)cc2)CC1", "<", 5.59),
    ("C[C@]12O[C@H](C[C@]1(O)CO)n1c3ccccc3c3c4c(c5c6ccccc6n2c5c31)CNC4=O [LESTAURTINIB]", "=", 6.06),
]
